System: C. elegans
Conditions: Table S2, C. elegans SS assay, 110 μM, 0 h, averages of 4 data points
*1 amine or outer side, *2 acyl side, *3 side chain or, on linkers, in order; H or OH if unused. Where a SMILES comes first, the peptide text is derived from it. Bridges are numbered along the chain shown (N, C = ends). [ ]: non-standard residue; d: D form. The star is where a group is joined. Orn(4R-OH,5R-OH) = O=C([C@H](C[C@@H](O)[C@@H](O)N[*:3])N[*:1])[*:2]; Tetradecanoyl(10R,12S-Me2) = CC[C@H](C)C[C@H](C)CCCCCCCCC(=O)*; hTyr(3S-OH,4S-OH) = N[C@H](C(=O)O)[C@H](O)[C@@H](O)c1ccc(O)cc1; Gln(3R-OH) = NC(=O)C[C@@H](O)[C@H](N)C(=O)O; Pro(3S-OH) = O=C(O)[C@H]1NCC[C@@H]1O; Hyp = O=C(O)[C@@H]1C[C@@H](O)CN1
Kind request: treat 20% as inclusive, so Percentage of motility inhibition 0 h at 20% or higher is TRUE, anything lower is FALSE.

Task item: // inclusive: Percentage of motility inhibition 0 h at least 20%? input: c1cc2c(c3c1C[C@H]1c4cc5c(cc4CCN1C3)OCO5)OCO2 (racemic) [(±)‐Stylopine]
Reply: FALSE

Task item: // inclusive: Percentage of motility inhibition 0 h at least 20%? input: C/C=C/C1=C(C(=O)O)N2C(=O)[C@@H](NC(=O)[C@H](N)c3ccc(O)cc3)[C@H]2SC1.O [Cefprozil (monohydrate)]
Reply: FALSE

Task item: // inclusive: Percentage of motility inhibition 0 h at least 20%? input: CC[C@H]1CN2CCc3cc(OC)c(OC)cc3[C@@H]2C[C@@H]1C[C@H]1NCCc2cc(O)c(OC)cc21.Cl.Cl [Cephaeline (dihydrochloride)]
Reply: FALSE

Task item: // inclusive: Percentage of motility inhibition 0 h at least 20%? input: C=C1C[C@@]23CC[C@H]4[C@@](C)(CCC[C@@]4(C)C(=O)O)[C@@H]2CC[C@]1(O[C@@H]1O[C@H](CO)[C@@H](O)[C@H](O)[C@H]1O[C@@H]1O[C@H](CO)[C@@H](O)[C@H](O)[C@H]1O)C3 [Steviolbioside]
Reply: FALSE

Task item: // inclusive: Percentage of motility inhibition 0 h at least 20%? input: Cn1cc(C(N)=O)ccc1=O [Nudifloramide]
Reply: FALSE

Task item: // inclusive: Percentage of motility inhibition 0 h at least 20%? input: CCc1c2c(nc3ccccc13)-c1cc3c(c(=O)n1C2)COC(=O)[C@]3(O)CC [7‐Ethylcamptothecin]
Reply: FALSE

Task item: // inclusive: Percentage of motility inhibition 0 h at least 20%? input: Cl.OC[C@H]1NC[C@@H](O)[C@@H](O)[C@@H]1O [1‐Deoxymannojirimycin (hydrochloride)]
Reply: TRUE

Task item: // inclusive: Percentage of motility inhibition 0 h at least 20%? input: Br.CN1[C@H]2C[C@H](OC(=O)[C@H](CO)c3ccccc3)C[C@@H]1[C@@H](O)C2 [Anisodamine (hydrobromide)]
Reply: FALSE

Task item: // inclusive: Percentage of motility inhibition 0 h at least 20%? input: CC(C)=CCc1c(O)cc(O)c2c(=O)c(O[C@@H]3O[C@@H](C)[C@H](O)[C@@H](O)[C@H]3O)c(-c3ccc(O)cc3)oc12 [IKarisoside A]
Reply: TRUE

Task item: // inclusive: Percentage of motility inhibition 0 h at least 20%? input: CC1(C)S[C@@H]2[C@H](NC(=O)[C@H](N)c3ccccc3)C(=O)N2[C@H]1C(=O)[O-].[Na+] [Ampicillin (sodium)]
Reply: TRUE

Task item: // inclusive: Percentage of motility inhibition 0 h at least 20%? input: CC(C)=CCC[C@](C)(O)[C@H]1CC[C@]2(C)[C@@H]1[C@H](O)C[C@@H]1[C@@]3(C)CC[C@H](O)C(C)(C)[C@@H]3[C@@H](O)C[C@]12C [(20S)-Protopanaxatriol]
Reply: TRUE

Task item: // inclusive: Percentage of motility inhibition 0 h at least 20%? input: CC1(C)S[C@@H]2[C@H](NC(=O)[C@H](NC(=O)N3CCNC3=O)c3ccccc3)C(=O)N2[C@H]1C(=O)[O-].[Na+] [Azlocillin (sodium salt)]
Reply: TRUE

Task item: // inclusive: Percentage of motility inhibition 0 h at least 20%? input: CC[C@H](C)C[C@H](C)CCCCCCCCC(=O)N[C@H]1C[C@@H](O)[C@@H](O)NC(=O)[C@@H]2[C@@H](O)CCN2C(=O)[C@H]([C@H](O)CC(N)=O)NC(=O)[C@H]([C@H](O)[C@@H](O)c2ccc(O)cc2)NC(=O)[C@@H]2C[C@@H](O)CN2C(=O)[C@H]([C@@H](C)O)NC1=O [Pneumocandin B0] ({Tetradecanoyl(10R,12S-Me2)}-[Orn(4R-OH,5R-OH)]T[Hyp][hTyr(3S-OH,4S-OH)][Gln(3R-OH)][Pro(3S-OH)]; lactam 1-C)
Reply: FALSE

Task item: // inclusive: Percentage of motility inhibition 0 h at least 20%? input: CCC[C@@H]1C[C@@H](C(=O)N[C@@H]([C@H]2O[C@H](SC)[C@H](O)[C@@H](O)[C@H]2O)[C@H](C)Cl)N(C)C1.Cl [Clindamycin (hydrochloride)]
Reply: TRUE

Task item: // inclusive: Percentage of motility inhibition 0 h at least 20%? input: C=C1[C@H]2C[C@H]2[C@]2(C)Cc3occ(C)c3[C@H](O)[C@@H]12 [Lindenenol]
Reply: FALSE

Task item: // inclusive: Percentage of motility inhibition 0 h at least 20%? input: COc1cc2c(cc1O)CC[N+](C)(C)[C@@H]2Cc1ccc(O)cc1.[OH-] [Lotusine (hydroxide)]
Reply: FALSE

Task item: // inclusive: Percentage of motility inhibition 0 h at least 20%? input: CC(C)=CCC[C@](C)(O[C@@H]1O[C@H](CO)[C@@H](O)[C@H](O)[C@H]1O)[C@H]1CC[C@]2(C)[C@@H]1[C@H](O)C[C@@H]1[C@@]3(C)CC[C@H](O)C(C)(C)[C@@H]3[C@@H](O[C@@H]3O[C@H](CO)[C@@H](O)[C@H](O)[C@H]3O[C@@H]3OC[C@@H](O)[C@H](O)[C@H]3O)C[C@]12C [Notoginsenoside R1]
Reply: FALSE

Task item: // inclusive: Percentage of motility inhibition 0 h at least 20%? input: C[C@H]1CC[C@@H]2N(C1)C[C@H]1[C@@H]3C[C@H]4[C@@H](CC(=O)[C@H]5C[C@@H](O[C@@H]6O[C@H](CO)[C@@H](O)[C@H](O)[C@H]6O)CC[C@@]54C)[C@@H]3CC[C@@H]1[C@]2(C)O [Edpetiline]
Reply: FALSE

Task item: // inclusive: Percentage of motility inhibition 0 h at least 20%? input: COc1ccc(-c2oc3c4c(cc(O)c3c(=O)c2O)OC(C)(C)CC4)cc1 [β‐Anhydroicaritin]
Reply: FALSE

Task item: // inclusive: Percentage of motility inhibition 0 h at least 20%? input: Cc1ncc(C[n+]2csc(CCO)c2C)c(N)n1.Cl.[Cl-] [Thiamine (hydrochloride)]
Reply: FALSE

Task item: // inclusive: Percentage of motility inhibition 0 h at least 20%? input: C[C@@]1(O)[C@H](O)[C@@H](CO)O[C@H]1n1ccc(N)nc1=O [NM107]
Reply: TRUE

Task item: // inclusive: Percentage of motility inhibition 0 h at least 20%? input: CC1(C)CC(NC(=O)C(=O)Nc2ccc(Cl)cc2)CC(C)(C)N1 [NBD‐556]
Reply: TRUE

FYI, the data here is from paper PMC11855827.
